Data origin: patent US20010006793A1

target-or-test-system: T1, human caspase-8β (Homo sapiens, UniProt Q14790)
T1 construct: expressed in transfected cells; host or cells: Saccharomyces cerevisiae FY250, single-copy ARS/CEN vector YCpGAL1-caspase-8β-L, GAL1 promoter
T1 sequence (Q14790 1-464 isoform Q14790-2): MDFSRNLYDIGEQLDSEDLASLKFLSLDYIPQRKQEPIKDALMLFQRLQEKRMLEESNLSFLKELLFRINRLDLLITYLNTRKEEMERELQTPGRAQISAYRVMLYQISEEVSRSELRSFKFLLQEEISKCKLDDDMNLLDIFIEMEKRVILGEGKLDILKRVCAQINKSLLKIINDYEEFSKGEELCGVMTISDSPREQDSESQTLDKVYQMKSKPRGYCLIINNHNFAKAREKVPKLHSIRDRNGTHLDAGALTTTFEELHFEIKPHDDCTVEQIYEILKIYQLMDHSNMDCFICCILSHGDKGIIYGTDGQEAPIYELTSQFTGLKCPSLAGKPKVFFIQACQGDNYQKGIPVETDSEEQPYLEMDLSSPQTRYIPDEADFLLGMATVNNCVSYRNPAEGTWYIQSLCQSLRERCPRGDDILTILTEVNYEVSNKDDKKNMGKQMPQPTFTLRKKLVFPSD
test-details: Yeast screening method: suppression of caspase-8β-induced lethality in S. cerevisiae FY250 double transformants on galactose medium
Type: cell-based
test-conditions: Table 1 Caspase Modulators; identified using the screening method of the invention
measure-name: Caspase Inhibitor

Incoming: Kindly indicate its recorded Caspase Inhibitor. Item: Human Myelin Basic Protein: product encoded by human brain cDNA, identified as caspase inhibitor (protein) MASQKRPSQRHGSKYLATASTMDHARHGFLPRHRDTGILDSIGRFFGGDRGAPKRGSGKDSHHPARTAHYGSLPQKSHGRTQDENPVVHFFKNIVTPRTPPPSQGKGRGLSLSRFSWGAEGQRPGFGYGGRASDYKSAHKGFKGVDAQGTLSKIFKLGGRDSRSGSPMARR
Outgoing: ✓

Incoming: Kindly indicate its recorded Caspase Inhibitor. Item: Human Death Associated Protein 1: product encoded by human brain cDNA; also known as DAP-1 (protein) MSSPPEGKLETKAGHPPAVKAGGMRIVQKHPHTGDTKEEKDKDDQEWESPSPPKPTVFISGVIARGDKDFPPAAAQVAHQKPHASMDKHPSPRTQHIQQPRK
Outgoing: ✓

Incoming: Kindly indicate its recorded Caspase Inhibitor. Item: Human Tissue Inhibitor of Metalloprotease-3: product encoded by human brain cDNA, identified as caspase inhibitor (protein) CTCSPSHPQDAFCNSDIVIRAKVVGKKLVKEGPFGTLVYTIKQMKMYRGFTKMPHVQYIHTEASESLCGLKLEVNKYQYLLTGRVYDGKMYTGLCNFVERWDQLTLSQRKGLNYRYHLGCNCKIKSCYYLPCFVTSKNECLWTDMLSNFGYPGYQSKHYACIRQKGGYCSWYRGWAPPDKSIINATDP
Outgoing: ✓
